System: noncancerous African green monkey kidney epithelial cell line (Vero)
Assay: Cell viability assay (neutral red), Vero
Assay type: cell-based
Parameters: key: inactive: Inactive means cell viability percentage was >50% at the maximum concentration used (>100 µM for the compound or >100 µg/mL for the extract)
Conditions: 24 h, inactive = viability >50% at >100 µM
assay_endpoint: IC50 Vero

Reference set (5 entries):
COc1ccc2c(c1)[nH]c1cc(O)c(C=O)cc12 | inactive^bB
C=CC(C)(C)c1c2c(c(OC)c3ccc(=O)oc13)C=CC(C)(C)O2 | inactive^cB
COc1ccc2c(c1)[nH]c1c(CC=C(C)C)c(O)c(C=O)cc12 | inactive^bB
CC(C)=CCc1c(O)c(C=O)cc2c1[nH]c1ccccc12 | inactive^dB
C=CC(C)(C)c1c2c(c(O)c3ccc(=O)oc13)C=CC(C)(C)O2 | inactive^cB

// for each compound in input: emit IC50 Vero
1. COc1c2c(cc3oc(=O)ccc13)OC(C)(C)C=C2
2. N.N.[Cl][Pt][Cl] [Cisplatin, reference compound]

Return:
["inactive^cB", "inactive^dB"]
